Hello, the source for this data is patent US11814444B2, in case you need it.

# assayedSystem: PCSK9 (Homo sapiens)
# Sequence (Q8NBP7 153-692): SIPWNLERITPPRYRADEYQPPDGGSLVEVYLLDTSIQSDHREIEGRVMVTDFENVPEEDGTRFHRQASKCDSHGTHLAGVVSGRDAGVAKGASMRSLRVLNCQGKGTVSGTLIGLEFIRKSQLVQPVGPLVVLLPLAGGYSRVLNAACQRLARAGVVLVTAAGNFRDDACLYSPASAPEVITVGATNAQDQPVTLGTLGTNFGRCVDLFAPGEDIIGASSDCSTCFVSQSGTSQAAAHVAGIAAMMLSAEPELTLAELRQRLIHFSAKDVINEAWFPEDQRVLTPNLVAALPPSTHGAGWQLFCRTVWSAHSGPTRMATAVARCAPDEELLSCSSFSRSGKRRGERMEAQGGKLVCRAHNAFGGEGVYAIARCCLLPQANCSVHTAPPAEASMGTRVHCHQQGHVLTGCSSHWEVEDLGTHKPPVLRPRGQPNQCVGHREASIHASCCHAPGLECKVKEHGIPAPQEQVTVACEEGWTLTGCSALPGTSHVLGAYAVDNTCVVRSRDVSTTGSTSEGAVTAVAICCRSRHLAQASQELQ
# experimentDescription: PCSK9 Alexa FRET Standard assay (displacement of AlexaFluor647 tagged cyclic peptide Reagent A)
# Assay type: binding
# studyConditions: 0.5 nM PCSK9, 20 nM AF cyclic peptide Reagent A
Numbered stars: 1 amine (or outer) side, 2 acyl side, 3 side chain; on linkers, the order of the positions; unused ones are H or OH. Bridge positions count the residues as written; N and C are the ends. Square brackets hold non-standard residues; d marks the D form. Peptide text beside a SMILES is read from it. * marks the point of attachment. Trp(7-aza) = N[C@@H](Cc1c[nH]c2ncccc12)C(=O)O; X8 = O=C([C@H](Cc1ccc2[nH]ncc2c1)N[*:1])[*:2]; mXylylene = c1cc(C[*:1])cc(C[*:2])c1; Ala(cPr) = N[C@@H](CC1CC1)C(=O)O; Hyp = O=C(O)[C@@H]1C[C@@H](O)CN1; Tle = CC(C)(C)[C@H](N)C(=O)O; αMeV = CC(C)[C@](C)(N)C(=O)O; Dpg = CCCC(N)(CCC)C(=O)O; Nva = CCC[C@H](N)C(=O)O; Thp = NC1(C(=O)O)CCOCC1; Ac4c = NC1(C(=O)O)CCC1; X4 = C(CC[*:2])C[*:1]; Ms = CS(=O)(=O)*; Mpa = O=C(O)CCS
measurementType: IC50

[ask] Return reported IC50; argument: CC(=O)N[C@H]1CSCc2cccc(c2)CSC[C@H](C(N)=O)NC(=O)[C@H]([C@@H](C)O)NC(=O)[C@](C)(C(C)C)NC(=O)[C@H](Cc2ccc(O)cc2)NC(=O)[C@H](C)NC(=O)C2(CCC2)NC(=O)[C@H](Cc2c[nH]c3ncccc23)NC(=O)[C@H]([C@@H](C)O)NC(=O)[C@@H]2C[C@@H]3CN2C(=O)[C@H](Cc2ccc(O)cc2)NC(=O)[C@H](NC1=O)[C@H](C)OCCCCO3 [Compound 343] (Ac-C[dT]Y[Hyp]T[Trp(7-aza)][Ac4c]AY[αMeV]T[dC]-NH2; linker 1-12 via mXylylene; linker 2-4 via X4)
[reply] 1 to 21 µM

[ask] Return reported IC50; argument: CCCC1(CCC)NC(=O)[C@H](Cc2c[nH]c3ncccc23)NC(=O)[C@H]([C@@H](C)O)NC(=O)[C@@H]2CCCN2C(=O)[C@H](Cc2ccc(O)cc2)NC(=O)[C@H](C(C)(C)C)NC(=O)[C@@H](NC(C)=O)CSCc2cccc(c2)CSC[C@H](C(N)=O)NC(=O)[C@H]([C@@H](C)O)NC(=O)[C@](C)(C(C)C)NC(=O)[C@H](Cc2ccc(O)cc2)NC(=O)[C@H](C)NC1=O [Compound 188] (Ac-C[Tle]YPT[Trp(7-aza)][Dpg]AY[αMeV]T[dC]-NH2; linker 1-12 via mXylylene)
[reply] 1 to 21 µM

[ask] Return reported IC50; argument: CC(C)[C@]1(C)NC(=O)[C@H](Cc2ccc(O)cc2)NC(=O)[C@H](C)NC(=O)C2(CCC2)NC(=O)[C@H](Cc2c[nH]c3ncccc23)NC(=O)[C@H]([C@@H](C)O)NC(=O)[C@@H]2CCCN2C(=O)[C@H](Cc2ccc(O)cc2)NC(=O)[C@H](C(C)(C)C)NC(=O)[C@@H](NS(C)(=O)=O)CSCc2cccc(c2)CSC[C@H](C(N)=O)NC(=O)[C@H]([C@@H](C)O)NC1=O [Compound 192] (Ms-C[Tle]YPT[Trp(7-aza)][Ac4c]AY[αMeV]T[dC]-NH2; linker 1-12 via mXylylene)
[reply] 0.001 to 0.1 µM

[ask] Return reported IC50; argument: CCC[C@H](NC(C)=O)C(=O)N[C@H]1CSCc2cccc(c2)CSC[C@@H](C(N)=O)NC(=O)[C@H]([C@@H](C)O)NC(=O)[C@H](CCC)NC(=O)[C@H](Cc2c[nH]c3ncccc23)NC(=O)[C@H](CCC(=O)O)NC(=O)[C@H](CCC)NC(=O)[C@H](Cc2c[nH]c3ncccc23)NC(=O)[C@H]([C@@H](C)O)NC(=O)[C@H](Cc2c[nH]cn2)NC(=O)[C@H](Cc2ccc(O)cc2)NC(=O)[C@H](C(C)(C)C)NC1=O [Compound 243] (Ac-[Nva]C[Tle]YHT[Trp(7-aza)][Nva]E[Trp(7-aza)][Nva]TC-NH2; linker 2-13 via mXylylene)
[reply] 50 to 100 µM

[ask] Return reported IC50; argument: CCC[C@@H]1NC(=O)[C@H](Cc2c[nH]c3ncccc23)NC(=O)[C@H]([C@@H](C)O)NC(=O)[C@@H]2CCCN2C(=O)[C@H](Cc2ccc(O)cc2)NC(=O)[C@H](C(C)(C)C)NC(=O)CCSCc2cccc(c2)CSC[C@@H](C(N)=O)NC(=O)[C@H]([C@@H](C)O)NC(=O)[C@H](CCC)NC(=O)[C@H](Cc2ccc(O)cc2)NC(=O)[C@H](CCC(=O)O)NC1=O [Compound 155] ([Mpa][Tle]YPT[Trp(7-aza)][Nva]EY[Nva]TC-NH2; linker 1-12 via mXylylene)
[reply] 1 to 21 µM

[ask] Return reported IC50; argument: CC(=O)N[C@H]1CSCc2cccc(c2)CSC[C@H](C(N)=O)NC(=O)[C@H]([C@@H](C)O)NC(=O)[C@](C)(C(C)C)NC(=O)[C@H](Cc2ccc(O)cc2)NC(=O)[C@H](C)NC(=O)C2(CCOCC2)NC(=O)[C@H](Cc2c[nH]c3ncccc23)NC(=O)[C@H]([C@@H](C)O)NC(=O)[C@@H]2CCCN2C(=O)[C@H](Cc2ccc(O)cc2)NC(=O)[C@H](C(C)(C)C)NC1=O [Compound 187] (Ac-C[Tle]YPT[Trp(7-aza)][Thp]AY[αMeV]T[dC]-NH2; linker 1-12 via mXylylene)
[reply] 0.001 to 0.1 µM

[ask] Return reported IC50; argument: CCC[C@@H]1NC(=O)[C@H](Cc2c[nH]c3ncccc23)NC(=O)[C@H]([C@@H](C)O)NC(=O)[C@H](Cc2c[nH]cn2)NC(=O)[C@H](Cc2ccc(O)cc2)NC(=O)[C@H](C(C)(C)C)NC(=O)CCSCc2cccc(c2)CSC[C@@H](C(N)=O)NC(=O)[C@H]([C@@H](C)O)NC(=O)[C@H](CCC)NC(=O)[C@H](Cc2ccc3[nH]ncc3c2)NC(=O)[C@H](CCC(=O)O)NC1=O [Compound 257] ([Mpa][Tle]YHT[Trp(7-aza)][Nva]E[X8][Nva]TC-NH2; linker 1-12 via mXylylene)
[reply] 50 to 100 µM

[ask] Return reported IC50; argument: CCC[C@@H]1NC(=O)[C@H](Cc2ccc(O)cc2)NC(=O)[C@H](CCC(=O)O)NC(=O)[C@H](CC2CC2)NC(=O)[C@H](Cc2c[nH]c3ncccc23)NC(=O)[C@H]([C@@H](C)O)NC(=O)[C@H](Cc2c[nH]cn2)NC(=O)[C@H](Cc2ccc(O)cc2)NC(=O)[C@H](C(C)(C)C)NC(=O)CCSCc2cccc(c2)CSC[C@@H](C(N)=O)NC(=O)[C@H]([C@@H](C)O)NC1=O [Compound 264] ([Mpa][Tle]YHT[Trp(7-aza)][Ala(cPr)]EY[Nva]TC-NH2; linker 1-12 via mXylylene)
[reply] 1 to 21 µM
